assayed-target: human NPY Y5 receptor (Homo sapiens, UniProt Q15761)
Sequence (Q15761 1-445): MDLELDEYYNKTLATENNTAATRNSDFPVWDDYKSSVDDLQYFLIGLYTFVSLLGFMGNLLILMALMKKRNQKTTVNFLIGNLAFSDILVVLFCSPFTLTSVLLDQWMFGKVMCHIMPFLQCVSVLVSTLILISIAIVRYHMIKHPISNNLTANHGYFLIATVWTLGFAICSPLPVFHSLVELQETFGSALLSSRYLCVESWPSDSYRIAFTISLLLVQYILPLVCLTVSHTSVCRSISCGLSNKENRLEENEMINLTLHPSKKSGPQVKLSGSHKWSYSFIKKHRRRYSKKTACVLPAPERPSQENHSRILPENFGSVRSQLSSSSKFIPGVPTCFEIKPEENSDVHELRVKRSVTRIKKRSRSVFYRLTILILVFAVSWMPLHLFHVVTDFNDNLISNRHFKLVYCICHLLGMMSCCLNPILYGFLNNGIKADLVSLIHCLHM
pKi: −log10 of the molar value.
endpoint-label: pKi

## Task Quick one: pKi for NC(N)=NCCC[C@@H](NC(=O)C(c1ccccc1)c1ccccc1)C(=O)NCc1ccc(O)cc1 [BIBP3226] ?
## Result < 6.00
